System: SNB-78 CNS
Experiment: NCI tumour cell line growth inhibition, 48 h

compound | TGI
NC(=O)c1ncn(CCN2CCN(C(=O)NCCCCCCNC(=O)N3CCN(CCn4cnc(C(N)=O)c4N)CC3)CC2)c1N | > 100 µM
Cc1cc(C)n2c(-c3ccccc3)c(C)cc2n1 | > 100 µM
CSc1nc2c(nc(N)n2C2OC(COC(C)=O)C(OC(C)=O)C(OC(C)=O)C2OC(C)=O)c(=O)n1C (stereo not given) | > 100 µM
COc1cccc(NC(=O)C(C)(C)C)c1SSc1c(NC(=O)C(C)(C)C)cccc1OC | 51.2 µM
Cc1cc(Cl)ccc1NC(=O)CCCC(=O)C1CCC/C1=N\NC(=O)CC#N (stereo not given) | > 100 µM

###

System: DU-145 prostate
Experiment: NCI tumour cell line growth inhibition, 48 h

compound | qualifier | TGI / µM
Cc1cc(C)nc(SCC(=O)OC2CC(C)CCC2C(C)C)n1 (stereo not given) | > | 100
CCOC(=O)CSc1nnc(CSc2nc(-c3ccccc3)c(-c3ccccc3)[nH]2)n1-c1ccccc1 | = | 30.1
COC(=O)c1ccc2c(c1)C(=O)c1c-2n(C)c(=O)c2cc(OC)c(OC)cc12 | > | 50
C=CCc1cc(C=C(C#N)C#N)cc(OC)c1O | > | 100
N=C(N)SCc1cc(Cl)cc(Cl)c1O | = | 36.2
Cc1nc2c(cc1C(=O)N/N=C/c1ccc([N+](=O)[O-])cc1)c(=O)n(C)c(=O)n2C | > | 100
CCCCCCCCCCC/C=C\C[C@H](O)C/C=C1/C(=O)C=C[C@@H]1C/C=C\CCCC(=O)OC | = | 5.57
CCOC(=O)/C(N=Nc1ccc(-n2c(C)nc3ccc(Br)cc3c2=O)cc1)=C(/C)O | > | 100
NCCCCCCCCCCCn1c2c(c3ccccc3c1=O)C(=O)c1ccccc1-2 | = | 14.8
COC(=O)C(C(=O)C(=O)Nc1ccccc1C#N)c1nc2ccc([N+](=O)[O-])cc2[nH]c1=O (stereo not given) | > | 100

###

System: RXF 393 renal
Experiment: NCI tumour cell line growth inhibition, 48 h

compound | tested.target | qualifier | TGI (µM)
Clc1cc2c(nn1)Nc1ccccc1S2 | RXF 393 renal | > | 100
N=C(N)SCc1cc(Cl)cc(Cl)c1O | RXF 393 renal | = | 46.8
COc1ccc(CNC(C)C(=O)O)cc1 (stereo not given) | RXF 393 renal | > | 100
C=C1CC[C@@H]2[C@](C)(COC(C)=O)[C@H](OC(C)=O)CC[C@@]2(C)[C@@H]1CC(Nc1ccc(S(=O)(=O)Nc2cc(C)on2)cc1)C1=CCOC1=O (stereo not given in full) | RXF 393 renal | = | 3.84
COC(=O)/C=C(/C(=O)OC)c1cc2ccc3c([nH]c4ccccc43)c(C)c-2c1 | RXF 393 renal | > | 100
OC(c1cc2ccccc2[nH]1)C1(c2cccnc2)SCCCS1 (stereo not given) | RXF 393 renal | > | 100
O=C1C(Cl)C2(CC(/C=C/c3ccccc3O)=NN2c2cccc(S(=O)(=O)O)c2)N1c1nc2ccccc2s1 (stereo not given) | RXF 393 renal | > | 100
CC[C@@H](C(=O)[C@H](C)[C@H](O)[C@@H](C)[C@H]1O[C@H]([C@@H](CC)C(=O)O)CC[C@H]1C)C1O[C@]2(C=C[C@@H](O)[C@]3(CC[C@@](C)([C@H]4CC[C@](O)(CC)[C@H](C)O4)O3)O2)[C@H](C)C[C@@H]1C (stereo not given in full) | RXF 393 renal | = | 1.47
Cc1[nH]n(C(=N)N)c(=O)c1CCO | RXF 393 renal | > | 100
CCC(CCC(C)C1CCC2C3CC=C4CC(OC5OC(CO)C(O)C(O)C5O)CCC4(C)C3CCC12C)C(C)C (stereo not given) | RXF 393 renal | > | 100
CCOC(=O)NC(C(=O)OCC)(N1CCN(c2cc3c(cc2F)c(=O)c(C(=O)O)cn3CC)CC1)C(F)(F)F (stereo not given) | RXF 393 renal | > | 100
CN1C(=O)C(C(N)=O)C2CC1(C)Oc1ccccc12 (stereo not given) | RXF 393 renal | > | 100
CCN1C(=O)/C(=C2\SC(c3ccccc3)(c3ccccc3)c3ccccc32)SC1=S | RXF 393 renal | > | 100
Cc1cccc2nc3cccc(C(=O)NCCNCCNCCNC(=O)c4cccc5nc6cccc(C)c6nc45)c3nc12 | RXF 393 renal | = | 0.228
Cc1cc2c(C(C)C)c(O)c(O)c(C=NCCO)c2c(O)c1-c1c(C)cc2c(C(C)C)c(O)c(O)c(C=NCCO)c2c1O | RXF 393 renal | = | 9.51
O=C(COc1ccc(OCC(=O)NNC2=NC(c3cc(F)c(Cl)cc3Cl)CS2)c(Cl)c1)NNC1=NC(c2cc(F)c(Cl)cc2Cl)CS1 (stereo not given) | RXF 393 renal | = | 60.9
O=C(O)CC1NC(/C(=C/c2ccccc2O)NC(=O)c2ccccc2)OC1=O (stereo not given) | RXF 393 renal | = | 99.2
O=C(Nc1c(C(=O)NC2CCCCC2)[nH]c(=O)[nH]c1=O)c1ccc(Cl)cc1 | RXF 393 renal | > | 100
CSc1ccc(OCC2OC2O)cc1 (stereo not given) | RXF 393 renal | > | 100
Cc1ccc(C2N=C(N)NC3=C2CCOc2c3ccc3ccccc23)cc1 (stereo not given) | RXF 393 renal | = | 97.9
CC(C)(C)OC(=O)NCCC(=O)NC1(c2cc3ccccc3s2)CCCCC1 | RXF 393 renal | = | 26.2
C=C1C(=O)O[C@@H]2[C@H]1CCC(C)=C1C=CC(=O)[C@]12C | RXF 393 renal | = | 29.8
O=c1c2cccc(F)c2sc2c(N3CCNCC3)nc3ccccc3c12 | RXF 393 renal | = | 2.62
CC(=O)OC1CC2(C)OC(Cc3ccccc32)O1 (stereo not given) | RXF 393 renal | > | 100
O=C1C(=O)c2ccccc2C(O)=C1CCCc1ccc(C2CCCC2)cc1 | RXF 393 renal | = | 11.6
NC(=S)N/N=C/c1ccc(N)cn1 | RXF 393 renal | > | 10
COc1cc2c(cc1OC)CN1CCCc3cc(OC)c(OC)cc3C1C2 (stereo not given) | RXF 393 renal | = | 94.4
COc1ccc(/C=C/C(=N/NC(=O)N/N=C(/C=C/c2ccc(OC)cc2)C(C)(C)CN2CCCCC2)C(C)(C)CN2CCCCC2)cc1 | RXF 393 renal | = | 2.72
COc1cccc(-n2cc(-c3nc(Nc4cc(C)[nH]n4)c4ccccc4n3)nn2)c1 | RXF 393 renal | = | 8.92
COc1cc(C(=O)C2C(=O)c3ccccc3C2C2(O)c3ccccc3CC2C(O)c2cc(OC)c(OC)c(OC)c2)cc(OC)c1OC (stereo not given) | RXF 393 renal | > | 100
O=C1C=CC(=Nc2ccccc2)c2ccccc21 | RXF 393 renal | = | 23.2
O=C(O)C1CCC(=O)N1S(=O)(=O)c1ccccc1 (stereo not given) | RXF 393 renal | > | 100
CCOC(=O)C1=c2[nH]c3cccc4cccc(c43)n2C(=O)CC1c1ccccc1 (stereo not given) | RXF 393 renal | > | 100
NC1CCC(Nc2nc(NCc3cc(Cl)ccc3O)c3ncn(C4CCCC4)c3n2)CC1 (stereo not given) | RXF 393 renal | = | 0.277
C/C(=N\NC(=S)N1CCN(C2CCCCCC2)CC1)c1ccccn1 | RXF 393 renal | = | 2.5
N#CCOc1ccc(/C=C/C(=O)c2ccc(Cl)cc2)cc1 | RXF 393 renal | = | 38.5
CC(=O)C=NCC(=O)O | RXF 393 renal | > | 100
CC(C)(CCN=C(N)Nc1ccccn1)c1ccc(C(F)(F)F)cc1 | RXF 393 renal | = | 29.6
Cc1ccc(/C=C/C(=N/N=C(N)N)c2ccccc2)cc1 | RXF 393 renal | = | 4.03
O=C(c1ccco1)c1c(C(F)(F)F)nc2ccc(C(F)(F)F)cc2[n+]1[O-] | RXF 393 renal | = | 62.2

From: PubChem BioAssay (NCI)
